Reported values of inhibition for individual entries
system.tested: Nuclear receptor subfamily 5 group A member 2 (Homo sapiens)
method.summary: LRH-1 (NR5A2) inverse agonists, retest, confirmation, cell-based, luminescence (AID 651613);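 further: HEK293T cells co-transfected with LRH-1 and StAR promoter luciferase reporter; 0% = vehicle wells and 100% = parental cells lacking receptor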
conditions.used: cell-based LRH-1 luciferase reporter, inverse agonism; at 3.6 µM; active compounds read high
measure: inhibition (%)

compound="CCC(C)C(NC(=O)CCCNC(=O)CCC(=O)OC1O[C@H]2OC3(C)CC[C@H]4[C@H](C)CCC(C1C)C24OO3)C(=O)O (stereo partly drawn)" system_tested="Nuclear receptor subfamily 5 group A member 2 (Homo sapiens)" measure=inhibition measured_value=101
compound=COc1ccc(C[C@H]2NC[C@H](O)[C@H]2OC(C)=O)cc1 system_tested="Nuclear receptor subfamily 5 group A member 2 (Homo sapiens)" measure=inhibition measured_value=110
compound=CN1CCN(c2ccc([N+](=O)[O-])c3no[n+]([O-])c23)CC1 system_tested="Nuclear receptor subfamily 5 group A member 2 (Homo sapiens)" measure=inhibition measured_value=111
compound=C[C@H]1C[C@@H](C)C(=O)[C@@H]([C@H](O)CC2CC(=O)NC(=O)C2)C1 system_tested="Nuclear receptor subfamily 5 group A member 2 (Homo sapiens)" measure=inhibition measured_value=110
compound=C[C@@H]1C[C@@H]([C@H](O)CC2CC(=O)NC(=O)C2)C(=O)[C@@H](C)C1 system_tested="Nuclear receptor subfamily 5 group A member 2 (Homo sapiens)" measure=inhibition measured_value=109
compound=Cc1ccccc1-[n+]1c(-c2ccccc2)cc(-c2ccccc2)cc1-c1ccccc1 system_tested="Nuclear receptor subfamily 5 group A member 2 (Homo sapiens)" measure=inhibition measured_value=109
compound="CC(=O)OC1CC(OC2C(O)CC(OC3C(O)CC(OC4CCC5(C)C(CCC6C5CCC5(C)C(C7=CC(=O)OC7)CCC65O)C4)OC3C)OC2C)OC(C)C1OC1OC(CO)C(O)C(O)C1O (stereo not drawn)" system_tested="Nuclear receptor subfamily 5 group A member 2 (Homo sapiens)" measure=inhibition measured_value=109
compound=O=[N+]([O-])c1cc(F)c(N2CCCCCC2)cc1N1CCNCC1 system_tested="Nuclear receptor subfamily 5 group A member 2 (Homo sapiens)" measure=inhibition measured_value=54.1
compound=Cc1nc2c(=O)n(C)c(=O)nc-2n(C)n1 system_tested="Nuclear receptor subfamily 5 group A member 2 (Homo sapiens)" measure=inhibition measured_value=94.5
compound="CC1CC(C)(O)CC(C(O)CC2CC(=O)NC(=O)C2)C1=O (stereo not drawn)" system_tested="Nuclear receptor subfamily 5 group A member 2 (Homo sapiens)" measure=inhibition measured_value=110
compound=Nc1ncnc2c1ccn2[C@@H]1O[C@H](CO)[C@@H](O)[C@H]1O system_tested="Nuclear receptor subfamily 5 group A member 2 (Homo sapiens)" measure=inhibition measured_value=107
compound="CCC(C)C1NC(=O)C(NC(=O)C(CC(C)C)N(C)C(=O)C2CCCN2C(=O)C(C)O)C(C)OC(=O)C(Cc2ccc(OC)cc2)N(C)C(=O)C2CCCN2C(=O)C(CC(C)C)NC(=O)[C@H](C)C(=O)[C@H](C(C)C)OC(=O)CC1O (stereo partly drawn)" system_tested="Nuclear receptor subfamily 5 group A member 2 (Homo sapiens)" measure=inhibition measured_value=111
compound=CCOC(=O)[C@]12Cc3ccc(C)cc3[C@H]1N(C1CCCCC1)C(=O)c1ccccc12 system_tested="Nuclear receptor subfamily 5 group A member 2 (Homo sapiens)" measure=inhibition measured_value=98
compound=CC(=O)c1cn(Cc2ccccc2C#N)c2ccccc12 system_tested="Nuclear receptor subfamily 5 group A member 2 (Homo sapiens)" measure=inhibition measured_value=57.2
compound=COc1cc2nc(CN3CC=C(c4ccccc4)CC3)[nH]c(=O)c2cc1OC system_tested="Nuclear receptor subfamily 5 group A member 2 (Homo sapiens)" measure=inhibition measured_value=97.1
compound=CN(C)c1ccc(/C=C/C=C/c2sc3ccccc3[n+]2C)cc1 system_tested="Nuclear receptor subfamily 5 group A member 2 (Homo sapiens)" measure=inhibition measured_value=54.1
compound=C[C@H]1CCC/C=C/[C@@H]2C[C@H](O)C[C@H]2[C@@H](O)/C=C/C(=O)O1 system_tested="Nuclear receptor subfamily 5 group A member 2 (Homo sapiens)" measure=inhibition measured_value=85.4
compound=c1ccc(-c2cc(-c3ccccc3)[n+](-c3ccccc3)c(-c3ccccc3)c2)cc1 system_tested="Nuclear receptor subfamily 5 group A member 2 (Homo sapiens)" measure=inhibition measured_value=104

// data source = PubChem BioAssay
